# test_method_notes: qHTS assay for cell viability of HEK293 cells (AID 743288); note: % is set by controls: 0 for no effect and ±100 for the full control effect; nearly all actives have a fitted effect of over 50% in size
# reported_conditions: ATP luminescence (CellTiter-Glo), 18 h, hits give low values
Inconclusive results are not listed.
value_kind: max response (%)
Express it in %; write the number only.

# count of solved cases: 5
>  <compound>
CC(=O)OC(C)C

>  <units>
%

>  <max response>
1.6

$$$$
>  <compound>
Cc1c(C(=O)O)cccc1[N+](=O)[O-]

>  <units>
%

>  <max response>
6.06

$$$$
>  <compound>
CCCCC(=O)N(C)C

>  <units>
%

>  <max response>
-5.96

$$$$
>  <compound>
Cc1ccco1

>  <units>
%

>  <max response>
3.18

$$$$
>  <compound>
CCC1CO1 (stereo unspecified)

>  <units>
%

>  <max response>
4.98

$$$$

Request: Which measured max response value corresponds to CCCC=O ?
Result: -2.32
